- Tested on: Zika virus NS2B-NS3 protease
- Measurement Protocol: Primary screen GU AMC qHTS for Zika virus inhibitors (AID 1347154);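 note: 0% = no-inhibitor control and -100% = no-enzyme control; nearly all actives have a fitted effect of over 70% in size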
- Run Conditions: Zika NS2B-NS3 unlinked protease, AMC fluorogenic substrate; series mostly up to 54.1 µM
Results filed as inconclusive are left out. Activity calls are given as the source filed them. Calls come from the whole dose curve; as a rule, active = well fitted inhibition curve with a large enough effect; inconclusive = small, poorly fitted or top-dose-only effect; inactive = flat fitted curve, though single readings scatter.
Parameter call: string, one of label 1 = active, label 0 = inactive

A selection of reference data follows.
Compound | Assigned Label
CC(Cc1ccccc1)N(C)Cc1ccco1 (stereo not given) | label 0
O=C(O)CCCc1ccc(N(CCCl)CCCl)cc1 | label 0

Can you look up the reported call for COC1CC(=C(c2cccs2)c2cccs2)C[N+](C)(C)C1 (stereo not given) for me?
label 0

Can you look up the reported call for CCC1(c2ccc(N)cc2)CCC(=O)NC1=O (stereo not given) for me?
label 0

Can you look up the reported call for CC(=O)OCC1=C(C(=O)O)N2C(=O)[C@@H](N)[C@H]2SC1 for me?
label 0

----------
- Measurement Protocol: qHTS Assay for Lipid Storage Modulators (AID 1519)
- Run Conditions: Drosophila S3 cells, BODIPY lipid droplet/cell ratio, laser cytometry; measured here: lipid channel max response; cells loaded with oleic acid
Records with an inconclusive call do not appear.
Here the recorded max response is given for each entry.
API: value field is a number in %; no unit string.

If you can, please state the reported max response value of O=c1oc2ccccc2c(O)c1Cc1c(O)c2ccccc2oc1=O .
-10.4

If you can, please state the reported max response value of Clc1cccc(SC2CCNCC2)n1 .
-29.2

If you can, please state the reported max response value of COc1cc(OC)c(OC)cc1C=O .
28.2

If you can, please state the reported max response value of C=C(C)[C@H]1CN[C@H](C(=O)O)[C@H]1CC(=O)O .
-9.1

If you can, please state the reported max response value of CC[N+](CC)(CC)CCOc1cccc(OCC[N+](CC)(CC)CC)c1OCC[N+](CC)(CC)CC .
-4.34

If you can, please state the reported max response value of COc1c2c(cc3c1OCO3)CCN(C)C2 .
3.88

If you can, please state the reported max response value of Cc1ccc(C(=O)c2ccc(CC(=O)O)n2C)cc1 .
-8.93

----------
- Tested on: C33A
- Measurement Protocol: Primary qHTS to identify gynecologic anti-cancer compounds using libraries of approved drugs and bioactive compounds (AID 1345084); note: nearly all actives have a fitted effect of over 55% in size
- Run Conditions: Gynecologic cancer cell panel viability, ATPlite luminescence, 48 h; series mostly up to 57.5 µM
Results filed as inconclusive are left out. Calls of active or inactive are those of the source. Calls come from the whole dose curve; as a rule, active = well fitted cell-killing curve with a large enough effect; inconclusive = small, poorly fitted or top-dose-only effect, or effect the other way; inactive = flat fitted curve, though single readings scatter.
Parameter call: string, one of Yes for active, No for inactive

Compound | Assigned Label
CCC1(c2ccc(N)cc2)CCC(=O)NC1=O (stereo not given) | No
CC(C)NC(C)C | No
CN(C)CCc1c[nH]c2cccc(OP(=O)(O)O)c12 | No
C[C@@H](N)[C@@H](O)c1ccccc1 | No
CCN[C@@H](C)Cc1cccc(C(F)(F)F)c1 | No

Can you look up the reported call for C[C@]12CCC(=O)C=C1CC[C@@H]1[C@@H]2CC[C@@]2(C)[C@H]1CC[C@]2(C)O for me?
No

Can you look up the reported call for CCCN(CCC)C(=O)Cc1c(-c2ccc(Cl)cc2)nc2ccc(Cl)cn12 for me?
No

Can you look up the reported call for COc1cccc2c1C(=O)c1c(O)c3c(c(O)c1C2=O)C[C@@](O)(C(=O)CO)CC3OC1CC(N2CCOC(OC)C2)C(O)C(C)O1 (stereo not given in full) for me?
Yes

Can you look up the reported call for Clc1cccc(SC2CCNCC2)n1 for me?
No

Can you look up the reported call for O=C(O)c1ccc(=O)[nH]c1 for me?
No

Can you look up the reported call for CC(C)c1c(CN(C)C(C)Cc2ccccc2)n(C)n(-c2ccccc2)c1=O (stereo not given) for me?
No

Can you look up the reported call for CN1CCC(O)(c2ccc(F)cc2)C(C(=O)c2ccc(F)cc2)C1 (stereo not given) for me?
No
